Target: ROCK2 (human)
Assay: Assessment of ROCK2 Kinase Activity using Luciferin-Luciferase Assay
measuredEndpoint: IC50 (nM)

Solved cases below.
{"columns": ["itemSmiles", "observed"],
 "data": [
  ["CN1CCc2nc(NC(=O)c3cccc([C@H]4CCCN4C(=O)c4csc(-c5ccncc5)n4)c3)sc2C1", 6.1],
  ["COc1ccc(C(=O)N2CCC[C@@H]2c2cccc(C(=O)Nc3nc4c(s3)CN(C)CC4)c2)cc1Cl", 38],
  ["COc1ccc(C(=O)N2CCC[C@@H]2c2cccc(C(=O)Nc3nc4c(s3)C[C@@H](N3CCOCC3)CC4)c2)cc1Cl", 5.8]
]}

P: CN1CCc2nc(NC(=O)c3cccc([C@H]4CCCN4C(=O)c4nnn(-c5nonc5N)c4-c4ccccc4)c3)sc2C1
Q: CN1CCc2nc(NC(=O)c3cccc([C@H]4CCCN4C(=O)c4cccc(-c5cccnc5)c4)c3)sc2C1
R: CN1CCc2nc(NC(=O)c3cccc([C@H]4CCCN4C(=O)c4ccc(-n5ccnc5)cc4)c3)sc2C1
Q. Give the ascending ranking of the items by reported IC50. List each label, following the requested order.
A. P, R, Q
(P: 6 nM, R: 14.5 nM, Q: 80.4 nM)

a: N#Cc1ccc(NC(=O)COc2cccc(C(=O)Nc3nc4c(s3)C[C@@H](NCCC(F)(F)F)CC4)c2)cc1
b: Cc1nnnn1-c1ccc(C(=O)N2CCC[C@@H]2c2cccc(C(=O)Nc3nc4c(s3)CN(C)CC4)c2)cc1
c: CN1CCc2nc(NC(=O)c3cccc([C@H]4CCCN4C(=O)c4cn5cc(C(N)=O)ccc5n4)c3)sc2C1
Q. Give the ascending ranking of the items by reported IC50. List each label, following the requested order.
A. c, a, b
(c: 2.5 nM, a: 5.1 nM, b: 91.4 nM)
